test: Metabolic stability in human liver microsomes; conditions: human, human liver microsomes, pH 7.4
outcome_measure: CLint scaled (mL/min/kg)
Give the quantity in mL/min/kg, number only.

molecule | result_units | CLint scaled
CCN(c1cc(C#CC2CCN(C)CC2)cc(C(=O)NCc2c(C)cc(C)[nH]c2=O)c1C)C1CCOCC1 [Compound 105] | mL/min/kg | 42.1
CCN(c1cc(C#CCN2CCOCC2)cc(C(=O)NCc2c(C)cc(C)[nH]c2=O)c1C)[C@H]1CC[C@H](N(C)CCOC)CC1 [Compound 2] | mL/min/kg | 8.8

Here is another molecule to look at.
Ask: State the recorded CLint scaled for this entry: CCN(c1cc(-c2ccc(OCCOC)cc2)cc(C(=O)NCc2c(C)cc(C)[nH]c2=O)c1C)[C@H]1CC[C@H](N(C)C)CC1 [Compound 1]
Reply: 10.5

----------
assay: Metabolic stability in monkey liver microsomes; conditions: cynomolgus monkey, pH 7.4
outcome_measure: CLint scaled (mL/min/kg)
Give the quantity in mL/min/kg, number only.

compound_string | outcome_measure | observed_measurement
CCN(c1cc(C#CC2CCN(C)CC2)cc(C(=O)NCc2c(C)cc(C)[nH]c2=O)c1C)C1CCOCC1 | CLint scaled | 74.8
CCN(c1cc(C#CCN2CCOCC2)cc(C(=O)NCc2c(C)cc(C)[nH]c2=O)c1C)[C@H]1CC[C@H](N(C)CCOC)CC1 | CLint scaled | 32.8

Ask: State the recorded CLint scaled for this entry: CCN(c1cc(-c2ccc(OCCOC)cc2)cc(C(=O)NCc2c(C)cc(C)[nH]c2=O)c1C)[C@H]1CC[C@H](N(C)C)CC1
Reply: 58.6

----------
system: CYP3A4/5; assay: Time-dependent inactivation (TDI) of CYP3A4/5 in human liver microsomes; type: in vitro ADME; conditions: human, human liver microsomes, pH 7.4; CYP3A4/5; footnote to ** not given; read-out: Time-Dependent Inactivation KI, second value in brackets marked **
outcome_measure: KI (inactivation) (µM)
Give the quantity in µM, number only.

Ask: State the recorded KI (inactivation) for this entry: CCN(c1cc(-c2ccc(OCCOC)cc2)cc(C(=O)NCc2c(C)cc(C)[nH]c2=O)c1C)[C@H]1CC[C@H](N(C)C)CC1 [Compound 1]
Reply: 3.3

----------
test: Metabolic stability in dog liver microsomes; settings: pH 7.4
This section presents compounds with their documented CLint scaled values.
Give the quantity in mL/min/kg, number only.

compound_string | result_units | CLint scaled
CCN(c1cc(C#CCN2CCOCC2)cc(C(=O)NCc2c(C)cc(C)[nH]c2=O)c1C)[C@H]1CC[C@H](N(C)CCOC)CC1 | mL/min/kg | 34.3
CCN(c1cc(C#CC2CCN(C)CC2)cc(C(=O)NCc2c(C)cc(C)[nH]c2=O)c1C)C1CCOCC1 | mL/min/kg | 64.2

Here is another compound to look at.
Ask: State the recorded CLint scaled for this entry: CCN(c1cc(-c2ccc(OCCOC)cc2)cc(C(=O)NCc2c(C)cc(C)[nH]c2=O)c1C)[C@H]1CC[C@H](N(C)C)CC1
Reply: 8.1

----------
biological target: UniProt:P10635; assay: Reversible CYP inhibition in pooled human liver microsomes, CYP2D6; details: read-out: Reversible inhibition IC50 CYP2D6
Sequence (P10635 whole entry): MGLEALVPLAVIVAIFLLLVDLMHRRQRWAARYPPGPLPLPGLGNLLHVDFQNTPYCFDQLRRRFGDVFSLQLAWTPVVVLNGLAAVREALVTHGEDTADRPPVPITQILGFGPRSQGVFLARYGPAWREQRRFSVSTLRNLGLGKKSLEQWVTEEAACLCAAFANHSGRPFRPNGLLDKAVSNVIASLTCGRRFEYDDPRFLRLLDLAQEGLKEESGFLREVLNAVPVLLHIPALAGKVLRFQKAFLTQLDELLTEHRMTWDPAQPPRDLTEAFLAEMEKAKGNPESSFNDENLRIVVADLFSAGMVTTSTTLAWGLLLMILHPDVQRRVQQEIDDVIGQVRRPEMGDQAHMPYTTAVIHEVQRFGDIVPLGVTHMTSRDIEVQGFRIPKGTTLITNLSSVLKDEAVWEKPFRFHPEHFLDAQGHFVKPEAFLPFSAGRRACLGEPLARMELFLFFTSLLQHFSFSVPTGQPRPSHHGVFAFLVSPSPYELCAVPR
outcome_measure: pIC50
Scale: pIC50 equals -log10([C]), with [C] in mol/L.

Ask: State the recorded pIC50 for this entry: CCN(c1cc(C#CC2CCN(C)CC2)cc(C(=O)NCc2c(C)cc(C)[nH]c2=O)c1C)C1CCOCC1
Reply: 5.53

----------
test: Metabolic stability in mouse liver microsomes; conditions: pH 7.4
This section presents molecules with their documented CLint scaled values.
Give the quantity in mL/min/kg, number only.

Solved cases (2 shown):
molecule | result_units | CLint scaled
CCN(c1cc(C#CCN2CCOCC2)cc(C(=O)NCc2c(C)cc(C)[nH]c2=O)c1C)[C@H]1CC[C@H](N(C)CCOC)CC1 [Compound 2] | mL/min/kg | 17.6
CCN(c1cc(-c2ccc(OCCOC)cc2)cc(C(=O)NCc2c(C)cc(C)[nH]c2=O)c1C)[C@H]1CC[C@H](N(C)C)CC1 [Compound 1] | mL/min/kg | 15.4

Ask: State the recorded CLint scaled for this entry: CCN(c1cc(C#CC2CCN(C)CC2)cc(C(=O)NCc2c(C)cc(C)[nH]c2=O)c1C)C1CCOCC1 [Compound 105]
Reply: 54.7

----------
tested on: CYP3A4/5; assay: in vitro; settings: human, pooled human liver microsomes, pH 7.4, probe midazolam
outcome_measure: pIC50
Scale: pIC50 equals -log10([C]), with [C] in mol/L.

compound_string | pIC50
CCN(c1cc(-c2ccc(OCCOC)cc2)cc(C(=O)NCc2c(C)cc(C)[nH]c2=O)c1C)[C@H]1CC[C@H](N(C)C)CC1 | 4.39

Here is another compound to look at.
Ask: State the recorded pIC50 for this entry: CCN(c1cc(C#CC2CCN(C)CC2)cc(C(=O)NCc2c(C)cc(C)[nH]c2=O)c1C)C1CCOCC1
Reply: 5.01

----------
experiment: Metabolic stability in rat liver microsomes; conditions: pH 7.4
outcome_measure: CLint scaled (mL/min/kg)
Give the quantity in mL/min/kg, number only.

Solved cases (2 shown):
compound_string | CLint scaled (mL/min/kg)
CCN(c1cc(C#CC2CCN(C)CC2)cc(C(=O)NCc2c(C)cc(C)[nH]c2=O)c1C)C1CCOCC1 | 47.5
CCN(c1cc(-c2ccc(OCCOC)cc2)cc(C(=O)NCc2c(C)cc(C)[nH]c2=O)c1C)[C@H]1CC[C@H](N(C)C)CC1 | 14.8

Here is another compound to look at.
Ask: State the recorded CLint scaled for this entry: CCN(c1cc(C#CCN2CCOCC2)cc(C(=O)NCc2c(C)cc(C)[nH]c2=O)c1C)[C@H]1CC[C@H](N(C)CCOC)CC1
Reply: 14.8

----------
tested on: CYP1A; experiment: in vitro; conditions: human, pooled human liver microsomes, pH 7.4
pIC50: −log10 of the molar value.
outcome_measure: pIC50

molecule | outcome_measure | observed_measurement
CCN(c1cc(C#CCN2CCOCC2)cc(C(=O)NCc2c(C)cc(C)[nH]c2=O)c1C)[C@H]1CC[C@H](N(C)CCOC)CC1 [Compound 2] | pIC50 | < 4.00

Ask: State the recorded pIC50 for this entry: CCN(c1cc(-c2ccc(OCCOC)cc2)cc(C(=O)NCc2c(C)cc(C)[nH]c2=O)c1C)[C@H]1CC[C@H](N(C)C)CC1 [Compound 1]
Reply: < 4.00

Ask: Similarly, CCN(c1cc(C#CC2CCN(C)CC2)cc(C(=O)NCc2c(C)cc(C)[nH]c2=O)c1C)C1CCOCC1 [Compound 105] ?
Reply: < 4.00

----------
molecular target: CYP2C19 (Homo sapiens (Human), UniProt P33261); conditions: read-out: Reversible inhibition IC50 CYP2C19; human liver microsomes
Sequence (P33261 whole entry): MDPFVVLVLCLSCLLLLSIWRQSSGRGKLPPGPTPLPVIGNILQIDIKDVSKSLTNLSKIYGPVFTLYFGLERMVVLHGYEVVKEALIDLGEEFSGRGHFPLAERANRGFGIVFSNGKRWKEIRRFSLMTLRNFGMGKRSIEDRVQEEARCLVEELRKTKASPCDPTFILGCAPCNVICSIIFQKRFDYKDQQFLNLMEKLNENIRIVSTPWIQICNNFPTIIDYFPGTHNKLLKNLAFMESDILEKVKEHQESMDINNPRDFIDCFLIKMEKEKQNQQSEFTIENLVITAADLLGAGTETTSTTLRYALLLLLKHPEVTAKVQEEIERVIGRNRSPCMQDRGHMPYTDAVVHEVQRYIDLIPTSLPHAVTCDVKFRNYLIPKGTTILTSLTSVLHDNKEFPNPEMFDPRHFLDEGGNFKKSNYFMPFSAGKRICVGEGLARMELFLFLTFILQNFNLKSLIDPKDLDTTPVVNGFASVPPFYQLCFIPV
outcome_measure: pIC50
Scale: pIC50 equals -log10([C]), with [C] in mol/L.

compound | pIC50
CCN(c1cc(-c2ccc(OCCOC)cc2)cc(C(=O)NCc2c(C)cc(C)[nH]c2=O)c1C)[C@H]1CC[C@H](N(C)C)CC1 [Compound 1] | 4.05

Here is another compound to look at.
Ask: Test system CYP2C19 (Homo sapiens (Human), UniProt P33261); read-out pIC50; what value for CCN(c1cc(C#CC2CCN(C)CC2)cc(C(=O)NCc2c(C)cc(C)[nH]c2=O)c1C)C1CCOCC1 [Compound 105] ?
Reply: 4.47

----------
test system: CYP2C9; test: in vitro; conditions: human, pooled human liver microsomes, pH 7.4
outcome_measure: IC50

Solved cases (2 shown):
compound_string | IC50
CCN(c1cc(C#CC2CCN(C)CC2)cc(C(=O)NCc2c(C)cc(C)[nH]c2=O)c1C)C1CCOCC1 | 75.7 µM
CCN(c1cc(-c2ccc(OCCOC)cc2)cc(C(=O)NCc2c(C)cc(C)[nH]c2=O)c1C)[C@H]1CC[C@H](N(C)C)CC1 | > 100 µM

Here is another molecule to look at.
Ask: State the recorded IC50 for this entry: CCN(c1cc(C#CCN2CCOCC2)cc(C(=O)NCc2c(C)cc(C)[nH]c2=O)c1C)[C@H]1CC[C@H](N(C)CCOC)CC1
Reply: > 100 µM

----------
target: EZH2 (PRC2 complex) (Homo sapiens (Human), UniProt Q15910); assay: PRC2 enzyme assay on peptide substrate (EZH2 peptide v2)
Sequence (Q15910 other isoform, or with tags, fused parts or gaps): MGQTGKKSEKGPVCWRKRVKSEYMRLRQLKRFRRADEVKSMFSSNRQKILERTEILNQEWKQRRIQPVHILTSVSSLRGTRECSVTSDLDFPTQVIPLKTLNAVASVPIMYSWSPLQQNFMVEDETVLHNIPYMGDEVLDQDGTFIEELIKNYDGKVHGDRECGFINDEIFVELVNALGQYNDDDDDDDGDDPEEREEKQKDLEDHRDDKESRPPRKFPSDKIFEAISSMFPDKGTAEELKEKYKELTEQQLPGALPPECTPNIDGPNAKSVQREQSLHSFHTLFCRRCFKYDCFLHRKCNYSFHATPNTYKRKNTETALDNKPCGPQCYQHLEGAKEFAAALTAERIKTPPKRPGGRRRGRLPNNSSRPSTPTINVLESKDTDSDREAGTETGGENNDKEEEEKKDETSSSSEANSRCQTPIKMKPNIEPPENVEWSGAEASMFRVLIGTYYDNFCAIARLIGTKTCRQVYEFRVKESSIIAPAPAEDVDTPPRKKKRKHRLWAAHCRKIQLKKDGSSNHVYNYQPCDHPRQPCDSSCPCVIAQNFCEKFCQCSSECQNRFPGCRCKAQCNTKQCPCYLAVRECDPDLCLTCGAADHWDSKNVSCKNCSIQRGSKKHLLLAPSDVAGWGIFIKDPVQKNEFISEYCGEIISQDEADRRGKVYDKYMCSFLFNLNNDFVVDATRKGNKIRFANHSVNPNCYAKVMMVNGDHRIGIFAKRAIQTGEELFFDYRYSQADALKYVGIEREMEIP
Sequence (O75530 whole entry partner): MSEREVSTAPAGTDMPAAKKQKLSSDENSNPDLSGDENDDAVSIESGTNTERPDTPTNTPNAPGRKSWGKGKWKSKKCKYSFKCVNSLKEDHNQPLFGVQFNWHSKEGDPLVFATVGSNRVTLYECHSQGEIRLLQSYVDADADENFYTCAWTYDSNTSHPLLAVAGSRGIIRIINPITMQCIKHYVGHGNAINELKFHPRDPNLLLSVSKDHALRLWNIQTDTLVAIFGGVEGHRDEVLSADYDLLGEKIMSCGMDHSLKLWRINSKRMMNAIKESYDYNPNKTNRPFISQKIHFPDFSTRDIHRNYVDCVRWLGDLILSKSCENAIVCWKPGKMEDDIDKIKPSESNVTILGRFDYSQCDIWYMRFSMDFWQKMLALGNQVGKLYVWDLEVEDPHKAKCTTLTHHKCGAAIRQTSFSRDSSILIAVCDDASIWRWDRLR
Sequence (Q15022 whole entry partner): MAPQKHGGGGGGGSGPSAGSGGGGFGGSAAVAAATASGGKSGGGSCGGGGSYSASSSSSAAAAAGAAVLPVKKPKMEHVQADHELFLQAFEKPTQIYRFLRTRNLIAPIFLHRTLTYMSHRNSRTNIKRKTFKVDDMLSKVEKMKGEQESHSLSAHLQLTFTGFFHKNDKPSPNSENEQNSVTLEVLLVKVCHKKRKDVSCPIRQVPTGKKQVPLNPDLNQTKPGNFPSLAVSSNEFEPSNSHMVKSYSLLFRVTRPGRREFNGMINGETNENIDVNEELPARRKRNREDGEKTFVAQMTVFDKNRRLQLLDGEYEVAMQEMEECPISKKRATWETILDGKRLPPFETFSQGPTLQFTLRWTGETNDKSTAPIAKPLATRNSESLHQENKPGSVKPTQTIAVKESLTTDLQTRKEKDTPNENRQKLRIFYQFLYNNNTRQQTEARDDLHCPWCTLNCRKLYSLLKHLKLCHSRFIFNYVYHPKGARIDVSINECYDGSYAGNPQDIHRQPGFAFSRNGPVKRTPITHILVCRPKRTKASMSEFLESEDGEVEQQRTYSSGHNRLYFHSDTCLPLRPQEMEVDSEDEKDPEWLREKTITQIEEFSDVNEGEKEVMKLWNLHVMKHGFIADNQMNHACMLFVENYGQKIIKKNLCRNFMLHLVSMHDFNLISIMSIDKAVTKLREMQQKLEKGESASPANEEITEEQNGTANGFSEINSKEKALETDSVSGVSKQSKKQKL
Sequence (Q09028 whole entry partner): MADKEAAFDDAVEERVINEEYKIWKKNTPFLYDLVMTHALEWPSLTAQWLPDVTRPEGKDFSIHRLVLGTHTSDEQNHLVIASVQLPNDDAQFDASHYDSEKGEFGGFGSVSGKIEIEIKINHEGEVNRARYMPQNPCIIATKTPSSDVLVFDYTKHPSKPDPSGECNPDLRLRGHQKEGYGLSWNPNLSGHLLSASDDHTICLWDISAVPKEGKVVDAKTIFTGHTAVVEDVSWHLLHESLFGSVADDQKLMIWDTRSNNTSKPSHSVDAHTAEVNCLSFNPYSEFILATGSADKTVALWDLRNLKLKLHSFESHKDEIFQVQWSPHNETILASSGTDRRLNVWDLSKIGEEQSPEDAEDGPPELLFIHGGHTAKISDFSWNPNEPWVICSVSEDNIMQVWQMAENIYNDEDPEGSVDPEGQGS
outcome_measure: IC50 (nM)
Give the quantity in nM, number only.

Ask: State the recorded IC50 for this entry: CCN(c1cc(C#CC2CCN(C)CC2)cc(C(=O)NCc2c(C)cc(C)[nH]c2=O)c1C)C1CCOCC1
Reply: 8.4

----------
biological target: CYP2C8 (Homo sapiens (Human)); assay: Reversible CYP inhibition in pooled human liver microsomes, CYP2C8; settings: read-out: Reversible inhibition IC50 CYP2C8
Sequence (P10632 whole entry): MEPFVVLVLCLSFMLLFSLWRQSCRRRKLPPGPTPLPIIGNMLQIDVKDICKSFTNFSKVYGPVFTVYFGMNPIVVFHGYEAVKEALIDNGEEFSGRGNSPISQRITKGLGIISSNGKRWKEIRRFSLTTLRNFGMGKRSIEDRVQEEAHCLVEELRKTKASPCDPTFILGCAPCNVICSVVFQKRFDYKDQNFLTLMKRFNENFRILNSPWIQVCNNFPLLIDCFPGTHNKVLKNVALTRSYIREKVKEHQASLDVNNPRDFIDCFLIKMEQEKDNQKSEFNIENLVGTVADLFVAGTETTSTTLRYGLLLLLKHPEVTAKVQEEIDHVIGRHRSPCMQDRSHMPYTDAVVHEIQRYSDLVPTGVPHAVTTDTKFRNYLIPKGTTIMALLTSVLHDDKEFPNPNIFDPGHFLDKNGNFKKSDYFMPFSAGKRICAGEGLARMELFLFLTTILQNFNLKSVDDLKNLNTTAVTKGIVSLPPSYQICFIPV
This section presents molecules with their documented IC50 values.

molecule | IC50
CCN(c1cc(-c2ccc(OCCOC)cc2)cc(C(=O)NCc2c(C)cc(C)[nH]c2=O)c1C)[C@H]1CC[C@H](N(C)C)CC1 [Compound 1] | > 100 µM

Ask: State the recorded IC50 for this entry: CCN(c1cc(C#CCN2CCOCC2)cc(C(=O)NCc2c(C)cc(C)[nH]c2=O)c1C)[C@H]1CC[C@H](N(C)CCOC)CC1 [Compound 2]
Reply: > 100 µM

Cited source: patent US9006242B2
